Assay Remarks: In vitro evaluation of cytotoxicity in C8166 cells infected with HIV-1 IIIB.
Assay type: cell-based
Condition Label: human, read-out: TC50 (the source's name)
Exercise: for every item that follows, state its recorded CC50.

IN: Param item = Nc1cc(Cl)nc2c1ncn2C1CCC(CO)O1 (stereo not drawn) ; retrieve measured CC50.
OUT: > 100 µM

IN: Param item = CNc1cc(Cl)nc2c1ncn2[C@H]1C[C@H](O)[C@@H](CO)O1 ; retrieve measured CC50.
OUT: > 100 µM

IN: Param item = OC[C@H]1O[C@@H](n2cnc3c(NC4CCC4)ccnc32)[C@H](O)[C@@H]1O ; retrieve measured CC50.
OUT: > 100 µM

---

Target System: Adenosine deaminase (Bos taurus)
Sequence (P56658 whole entry): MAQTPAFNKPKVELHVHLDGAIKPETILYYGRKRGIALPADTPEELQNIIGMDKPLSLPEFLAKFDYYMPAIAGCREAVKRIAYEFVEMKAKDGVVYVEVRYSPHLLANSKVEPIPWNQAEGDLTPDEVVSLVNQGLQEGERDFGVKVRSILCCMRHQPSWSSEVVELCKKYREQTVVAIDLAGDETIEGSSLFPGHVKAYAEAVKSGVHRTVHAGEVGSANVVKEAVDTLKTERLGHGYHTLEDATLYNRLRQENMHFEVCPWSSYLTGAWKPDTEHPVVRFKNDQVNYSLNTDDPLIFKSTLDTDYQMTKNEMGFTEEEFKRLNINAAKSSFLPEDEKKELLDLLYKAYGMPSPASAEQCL
Assay Remarks: Inhibition calf intestine adenosine deaminase
Assay Readout: Ki (µM)
Write down the numeric answer in µM and omit the unit.

IN: Param item = Nc1ccnc2c1ncn2[C@H]1C[C@H](O)[C@@H](CO)O1 ; retrieve measured Ki.
OUT: 0.19

IN: Param item = OC[C@H]1O[C@@H](n2cnc3c(NC4CC4)ccnc32)[C@H](O)[C@@H]1O ; retrieve measured Ki.
OUT: 38

IN: Param item = OC[C@H]1O[C@@H](n2cnc3c(NC4CC4)cc(Cl)nc32)C[C@@H]1O ; retrieve measured Ki.
OUT: 75

IN: Param item = Nc1ccnc2c1ncn2[C@@H]1O[C@H](CO)[C@@H](O)[C@H]1O ; retrieve measured Ki.
OUT: 0.38

IN: Param item = OC[C@H]1OC(n2cnc3c(NC4CCCCCCC4)ccnc32)[C@H](O)[C@@H]1O (some centres undefined) ; retrieve measured Ki.
OUT: 80

---

Assay Remarks: In vitro evaluation of cytotoxicity in C8166 cells infected with HIV-1 IIIB.
Format: cell-based
Condition Label: human, read-out: TC50 (the source's name)
Exercise: for every item that follows, state its recorded CC50.
Write down the numeric answer in µM and omit the unit.

IN: Param item = OCC1CCC(n2cnc3c(NC4CCCCC4)ccnc32)O1 (centres undefined) ; retrieve measured CC50.
OUT: 50

IN: Param item = OCC1CCC(n2cnc3c(NC4CCCCCC4)ccnc32)O1 (centres undefined) ; retrieve measured CC50.
OUT: 40

IN: Param item = OC[C@H]1O[C@@H](n2cnc3c(NC4CCCC4)ccnc32)[C@H](O)[C@@H]1O ; retrieve measured CC50.
OUT: 400

IN: Param item = OCC1CCC(n2cnc3c(NC4CCCC4)cc(Cl)nc32)O1 (centres undefined) ; retrieve measured CC50.
OUT: 50
